The entries below come with measured pIC50 values attached.
biological target: ligand binding domain of the glucocorticoid receptor (HEK293 cells stably expressing) (Homo sapiens); assay: GR antagonism assay (luciferase reporter)
Sequence (P04150 524-758 limits assumed): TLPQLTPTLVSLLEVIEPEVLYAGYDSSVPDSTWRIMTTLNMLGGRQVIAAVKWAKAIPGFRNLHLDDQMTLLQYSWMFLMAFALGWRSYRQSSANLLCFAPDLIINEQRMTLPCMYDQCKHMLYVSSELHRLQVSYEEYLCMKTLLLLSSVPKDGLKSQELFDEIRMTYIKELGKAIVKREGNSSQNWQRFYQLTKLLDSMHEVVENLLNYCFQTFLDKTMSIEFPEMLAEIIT
pIC50: −log10 of the molar value.

>  <molecule>
CC[C@@]1(O)C(=O)OCc2c1cc1n(c2=O)Cc2cc3c(CN4CCN(CCCCCCN(C)c5ccc([C@H]6C[C@@]7(C)[C@@H](CC[C@]7(OC(C)=O)C(C)=O)[C@@H]7CCC8=CC(=O)CCC8=C76)cc5)CC4)c(O)ccc3nc2-1 [Compound 36]

>  <pIC50>
> 8.00

$$$$

What does the data say about its pIC50? Entry: CC[C@@]1(O)C(=O)OCc2c1cc1n(c2=O)Cc2c-1nc1cc(F)c(C)c3c1c2[C@@H](NC(=O)COCCCCCCN(C)c1ccc([C@H]2C[C@@]4(C)[C@@H](CC[C@]4(OC(C)=O)C(C)=O)[C@@H]4CCC5=CC(=O)CCC5=C42)cc1)CC3 [Compound No. 47] 6.00 to 7.00

And the next one, CC[C@@]1(O)C(=O)OCc2c1cc1n(c2=O)Cc2cc3c(CN(C)C)c(OC(=O)N4CCN(C(=O)[C@H](CCCNC(N)=O)NC(=O)[C@@H](NCCCCCCN(C)c5ccc([C@H]6C[C@@]7(C)[C@@H](CC[C@]7(OC(C)=O)C(C)=O)[C@@H]7CCC8=CC(=O)CCC8=C76)cc5)C(C)C)CC4)ccc3nc2-1 [Compound 39] ? 6.00 to 7.00

And the next one, CC[C@@]1(O)C(=O)OCc2c1cc1n(c2=O)Cc2cc3c(CN(C)C)c(OC(=O)N4CCN(CC5CCN(c6ccc(C(=O)N[C@H]7CC[C@H](Oc8ccc(C#N)c(Cl)c8C)CC7)nn6)CC5)CC4)ccc3nc2-1 [Compound 31] ? < 6.00

###

Molecular target: AR (cytosol from LnCaP cells) (Homo sapiens, UniProt P10275, T878A)
Sequence (P10275 1-920 T878A): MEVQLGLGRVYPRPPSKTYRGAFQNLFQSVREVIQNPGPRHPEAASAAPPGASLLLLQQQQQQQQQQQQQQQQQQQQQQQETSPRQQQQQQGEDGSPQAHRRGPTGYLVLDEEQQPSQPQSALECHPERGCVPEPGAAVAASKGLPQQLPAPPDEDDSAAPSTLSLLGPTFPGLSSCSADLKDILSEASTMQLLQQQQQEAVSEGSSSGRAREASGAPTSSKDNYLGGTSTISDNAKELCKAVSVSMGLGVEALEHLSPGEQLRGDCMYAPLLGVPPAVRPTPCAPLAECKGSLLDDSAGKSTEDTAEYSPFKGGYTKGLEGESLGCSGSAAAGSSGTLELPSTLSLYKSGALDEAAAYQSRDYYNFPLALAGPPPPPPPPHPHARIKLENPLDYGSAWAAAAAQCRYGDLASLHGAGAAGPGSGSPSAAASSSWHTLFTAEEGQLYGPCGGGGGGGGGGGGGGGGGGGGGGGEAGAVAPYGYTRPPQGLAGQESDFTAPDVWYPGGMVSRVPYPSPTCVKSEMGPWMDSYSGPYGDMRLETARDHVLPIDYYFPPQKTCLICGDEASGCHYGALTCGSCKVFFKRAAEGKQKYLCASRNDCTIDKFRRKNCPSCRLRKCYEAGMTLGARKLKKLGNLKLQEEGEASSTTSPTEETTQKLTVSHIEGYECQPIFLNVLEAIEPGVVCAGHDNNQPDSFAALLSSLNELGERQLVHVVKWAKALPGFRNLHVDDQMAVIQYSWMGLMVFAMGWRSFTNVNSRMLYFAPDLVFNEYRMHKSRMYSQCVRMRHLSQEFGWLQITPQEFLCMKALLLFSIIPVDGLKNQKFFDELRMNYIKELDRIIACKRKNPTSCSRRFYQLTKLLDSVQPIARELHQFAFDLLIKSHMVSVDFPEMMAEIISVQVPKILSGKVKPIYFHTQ
Test: AR binding assay (3H-R1881 displacement)
pIC50: −log10 of the molar value.
The entries below come with measured pIC50 values attached.

>  <smiles notation>
CC[C@@]1(O)C(=O)OCc2c1cc1n(c2=O)Cc2cc3c(CN(C)C)c(OC(=O)N4CCN(CCCCCCN(C)C5CCN(c6ccc(C(=O)N[C@H]7CC[C@H](Oc8ccc(C#N)c(Cl)c8C)CC7)nn6)CC5)CC4)ccc3nc2-1

>  <pIC50>
> 8.00

$$$$
>  <smiles notation>
CC[C@@]1(O)C(=O)OCc2c1cc1n(c2=O)Cc2cc3c(CN4CCN(C(=O)CCCCCC5CCN(c6ccc(C(=O)N[C@H]7CC[C@H](N(C)c8ccc(C#N)c(Cl)c8)CC7)nn6)CC5)CC4)cccc3nc2-1

>  <pIC50>
7.00 to 8.00

$$$$
>  <smiles notation>
CC[C@@]1(O)C(=O)OCc2c1cc1n(c2=O)Cc2c-1nc1cc(F)c(C)c3c1c2[C@@H](NC(=O)CN1CCN(CCCCCCN(C)c2ccc([C@H]4C[C@@]5(C)[C@@H](CC[C@]5(OC(C)=O)C(C)=O)[C@@H]5CCC6=CC(=O)CCC6=C54)cc2)CC1)CC3

>  <pIC50>
> 8.00

$$$$
>  <smiles notation>
CC[C@@]1(O)C(=O)OCc2c1cc1n(c2=O)Cc2cc3c(CN(C)C)c(OC(=O)N4C[C@H](C)N(CC5CCN(c6ccc(C(=O)N[C@H]7CC[C@H](N(C)c8ccc(C#N)c(Cl)c8)CC7)nn6)CC5)C[C@H]4C)ccc3nc2-1

>  <pIC50>
7.00 to 8.00

$$$$
>  <smiles notation>
CC[C@@]1(O)C(=O)OCc2c1cc1n(c2=O)Cc2cc3c(CN4CCN(C(=O)C5CCN(c6ccc(C(=O)N[C@H]7CC[C@H](N(C)c8ccc(C#N)c(Cl)c8)CC7)nn6)CC5)CC4)c(O)ccc3nc2-1

>  <pIC50>
> 8.00

$$$$

Entry CC[C@@]1(O)C(=O)OCc2c1cc1n(c2=O)Cc2cc3c(CN4CCN(CCCCCCC5CCN(c6ccc(C(=O)N[C@H]7CC[C@H](Oc8ccc(C#N)c(Cl)c8C)CC7)nn6)CC5)CC4)c(O)ccc3nc2-1 , system AR (cytosol from LnCaP cells) (Homo sapiens, UniProt P10275, T878A): what pIC50 was measured? 7.00 to 8.00
